Data provenance: patent US20140213531A1

In this section, each of the binders is paired with its reported IC50.
system: T1, CathepsinG, from human neutrophils (human, UniProt P08311 21-244)
T1 sequence (looked up): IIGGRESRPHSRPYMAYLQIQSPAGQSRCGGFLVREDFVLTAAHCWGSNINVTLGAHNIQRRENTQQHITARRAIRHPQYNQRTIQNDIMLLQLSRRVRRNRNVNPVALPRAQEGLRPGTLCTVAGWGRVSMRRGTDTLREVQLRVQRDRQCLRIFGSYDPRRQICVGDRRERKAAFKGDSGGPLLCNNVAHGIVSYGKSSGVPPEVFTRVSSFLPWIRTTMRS
measurement protocol: cell-based or functional assay
recorded metric: IC50 (nmol)

# binder, meas value
measured = [
    ("ICTXSDPPICR (HELM PEPTIDE1{I.C.T.[Nle].S.D.P.P.I.C.R.[dP].P}$PEPTIDE1,PEPTIDE1,2:R3-10:R3|PEPTIDE1,PEPTIDE1,1:R1-13:R2$$$V2.0; SMILES CCCC[C@@H]1NC(=O)[C@H]([C@@H](C)O)NC(=O)[C@@H]2CSSC[C@H](NC(=O)[C@H]([C@@H](C)CC)NC(=O)[C@@H]3CCCN3C(=O)[C@@H]3CCCN3C(=O)[C@H](CC(=O)O)NC(=O)[C@H](CO)NC1=O)C(=O)N[C@@H](CCCNC(=N)N)C(=O)N1CCC[C@@H]1C(=O)N1CCC[C@H]1C(=O)N[C@@H]([C@@H](C)CC)C(=O)N2) [Example 22]", 55),
    ("ICTKSDPPXCR (HELM PEPTIDE1{I.C.T.K.S.D.P.P.[Nle].C.R.[dP].P}$PEPTIDE1,PEPTIDE1,2:R3-10:R3|PEPTIDE1,PEPTIDE1,1:R1-13:R2$$$V2.0; SMILES CCCC[C@@H]1NC(=O)[C@@H]2CCCN2C(=O)[C@@H]2CCCN2C(=O)[C@H](CC(=O)O)NC(=O)[C@H](CO)NC(=O)[C@H](CCCCN)NC(=O)[C@H]([C@@H](C)O)NC(=O)[C@@H]2CSSC[C@H](NC1=O)C(=O)N[C@@H](CCCNC(=N)N)C(=O)N1CCC[C@@H]1C(=O)N1CCC[C@H]1C(=O)N[C@@H]([C@@H](C)CC)C(=O)N2) [Example 19]", 41),
]
